Record form. Attribute: cell painting activity score. Fill in for each entry.
Tested on: U-2 OS
Assay Summary: cell painting activity score (Mahalanobis distance from DMSO wells); higher = stronger morphological phenotype
Assay Context: 1.25 µM; 24 h
// no unit string in output, number only

Ask: So what does the record say about cell painting activity score for "O=S1(=O)C=Cc2ccccc21" ?
Reply: 8.41

Ask: Further, for "CCOC(=O)C1=C(C)NC(=S)N[C@@H]1c1cccc(O)c1" ?
Reply: 4.81

Ask: Further, for "C=CC(=O)Nc1cc2c(Nc3ccc(F)c(Cl)c3)ncnc2cc1OCCCN1CCOCC1" ?
Reply: 19.4

Ask: Further, for "COc1cc(/C=C/c2cc(/C=C/c3ccc(O)c(OC)c3)n(-c3ccc(C(=O)[O-])cc3)n2)ccc1O.[Na+]" ?
Reply: 4.98

Ask: Further, for "C[C@@H]1O[C@@H](O[C@H]2[C@H](O[C@H]3CC[C@@]4(C)[C@@H](CC[C@]5(C)[C@@H]4CC=C4[C@@H]6CC(C)(C)CC[C@]6(C(=O)O)CC[C@]45C)[C@]3(C)CO)OC[C@H](O[C@@H]3O[C@H](CO)[C@@H](O)[C@H](O)[C@H]3O)[C@@H]2O)[C@H](O)[C@H](O)[C@H]1O" ?
Reply: 9.15

Ask: Further, for "O=C(O)C[C@@H]1C(=O)O[C@H]2[C@@H]3OC(=O)c4cc(O)c(O)c(O)c4-c4c(cc(O)c(O)c4O)C(=O)OC[C@H]2O[C@@H](OC(=O)c2cc(O)c(O)c(O)c2)[C@@H]3OC(=O)c2cc(O)c(O)c3c2[C@H]1[C@H](O)C(=O)O3" ?
Reply: 3.94

Ask: Further, for "CN(C)/N=N/c1nc[nH]c1C(N)=O" ?
Reply: 4.12

Ask: Further, for "CC(C)([C@](C1=O)(C2=O)C/C=C(C)\C)[C@@H](C[C@]31C[C@@H](C(C)(OC3=C2C(C4=CC(O)=C(C=C4)O)=O)C)C/C=C(C)\C)C/C=C(C)\C" ?
Reply: 3.85

Ask: Further, for CCN(CC)CCCC(C)Nc1ccnc2cc(Cl)ccc12 (stereo not given) ?
Reply: 5.94

Ask: Further, for "O=C(O[C@@H]1O[C@@H]2COC(=O)c3cc(O)c(O)c(O)c3-c3c(cc(O)c(O)c3O)C(=O)O[C@H]([C@H]1O)[C@@H]2O)c1cc(O)c(O)c(O)c1" ?
Reply: 3.86

Ask: Further, for "O=c1cc(N2CCOCC2)oc2c(-c3ccccc3)cccc12" ?
Reply: 4.47

Ask: Further, for "COc1ccc(/C(Cl)=C(/C=O)c2ccc(OC)cc2)cc1" ?
Reply: 7.76

Ask: Further, for "Cc1ccc(C(=O)N(CCCN)[C@@H](c2oc3cc(Cl)ccc3c(=O)c2Cc2ccccc2)C(C)C)cc1.Cl" ?
Reply: 13

Ask: Further, for "CCCCc1c(-c2ccc(OC)cc2)[nH]c2nccnc12" ?
Reply: 3.58

Ask: Further, for "Nc1nc(Cl)nc2c1ncn2[C@H]1C[C@H](O)[C@@H](CO)O1" ?
Reply: 13.3

---

Test system: U-2 OS
Assay Summary: cell painting activity score (Mahalanobis distance from DMSO wells); higher = stronger morphological phenotype
Assay Context: 2.5 µM; 24 h
Measurement Label: cell painting activity score
// no unit string in output, number only

Ask: So what does the record say about cell painting activity score for "N#CC(C#N)=NNc1cccc(Cl)c1" ?
Reply: 7.58

Ask: Further, for "C=C(C)[C@H]1Cc2c(ccc3c2O[C@@H]2COc4cc(OC)c(OC)cc4[C@@H]2C3=O)O1" ?
Reply: 15.6

Ask: Further, for CC1=C(CO)C(=O)O[C@H](C(C)[C@H]2CC[C@@H]3[C@H]4C[C@H]5O[C@@]56[C@@H](O)C=CC(=O)[C@@]6(C)C4CC[C@@]23C)C1 (stereo not given in full) ?
Reply: 17.1

Ask: Further, for O=S1(=O)CC(Sc2cccs2)c2ccccc21 (stereo not given) ?
Reply: 4.15

Ask: Further, for "CCOC(=O)C1=C(C)NC(=S)N[C@@H]1c1cccc(O)c1" ?
Reply: 5.49

Measured values drawn from the supplement of paper PMC10011410 for this set.
